What IC50 was measured for each of the following?
Target: SIK2 kinase (full length, Thermo Fisher) (Homo sapiens)
Construct: SIK2 kinase (full length, Thermo Fisher); purchased Thermo Fisher
Experiment: Biochemical activities determination for SIK2 protein (TR-FRET)
Settings: 80 uM ATP, 0.5 μM substrate
Answers are plain numbers, in nM.

Study these solved cases before continuing.
>>> df
                                   compound                        experimentalsystem  readoutvalue
0  CN1CC(Oc2cc(-c3coc4cc(OCCN5CCCC5)ccc34)cc(OC(F)F)c2C(=O)NC2CC2)C1 [Compound 106]  SIK2 kinase (full length, Thermo Fisher) (Homo sapiens)          2960
1  COc1cc(-c2coc3cc(-c4cnn(C5CCOCC5)c4)ccc23)cc2c1C(=O)N(CC(F)(F)F)CC2 [Compound 50]  SIK2 kinase (full length, Thermo Fisher) (Homo sapiens)            17

Shifting focus to the compound that follows.
Query :: Which IC50 is listed for COc1cc(-c2coc3cc(-c4ccc(C)nn4)ccc23)cc2c1C(=O)N(CC(F)(F)F)CC2 [Example 8] ?
Result :: 197

---

Biological target: SIK2 kinase (full length, Thermo Fisher) (Homo sapiens)
Construct: SIK2 kinase (full length, Thermo Fisher); purchased Thermo Fisher
Experiment: Biochemical activities determination for SIK2 protein (TR-FRET)
Conditions: 80 uM ATP, 0.5 μM substrate
Exam item: assign condition met to entries whose IC50 is below 60 nM and condition not met to entries at or above 60 nM. Note that a value of exactly 60 nM receives condition not met.

In [3]: df
Out[3]:
                                   compound         labelvalue
0  CN1CC[C@@H](COc2cc(-c3coc4cc(OCCN5CCCC5)ccc34)cc(OC(F)F)c2C(=O)NC2CC2)C1  condition not met
1  COc1cc(-c2coc3cc(OCCCN4CCN(C)CC4)ccc23)cc(OC(F)F)c1C(=O)N[C@@H]1C[C@@H]1F      condition met
2  COc1cc(-c2coc3cc(-c4cnn(C5CCOC5)c4)ccc23)cc2c1C(=O)N(CC(F)(F)F)CC2 (centres unmarked)      condition met

Query :: Strictly below 60 nM in IC50? COc1cc(-c2coc3cc(-c4cnn(C)c4)ccc23)cc2c1C(=O)N(CC(F)(F)F)CC2(C)C
Result :: condition not met

Query :: Here is the next compound: COc1cc(-c2coc3cc(-c4cn(C)cn4)ccc23)cc2c1C(=O)N(CC(F)(F)F)CC2
Result :: condition met

Query :: Same thing, different compound: O=C(NC1CC1)c1c(OC(F)F)cc(-c2coc3cc(OCCN4CCCC4)ccc23)cc1OC(F)F
Result :: condition not met

Query :: Item: O=C(NC1CC1)c1c(OCCO)cc(-c2coc3cc(OCCN4CCCC4)ccc23)cc1OC(F)F
Result :: condition not met

Query :: Follow-up item: COc1cc(-c2coc3cc(OCCN4CCC[C@@H](C)C4)ccc23)cc(OC(F)F)c1C(=O)N[C@@H]1C[C@@H]1F
Result :: condition met

Query :: Then what about the compound COc1cc(-c2coc3cc(OCCN4CCCCC4)ccc23)cc(OC(F)F)c1C(=O)N[C@@H]1C[C@@H]1F ?
Result :: condition met

Query :: And the next one, Cc1ccc(-c2ccc3c(-c4cc5c(c(OC(F)F)c4)C(=O)N(CC(F)(F)F)CC5)coc3c2)nn1 ?
Result :: condition not met

---

Biological target: SIK3 kinase (aa59-365, Thermo Fisher) (Homo sapiens, UniProt Q9Y2K2)
Construct: SIK3 kinase (aa59-365, Thermo Fisher); purchased Thermo Fisher
Sequence (Q9Y2K2 59-365): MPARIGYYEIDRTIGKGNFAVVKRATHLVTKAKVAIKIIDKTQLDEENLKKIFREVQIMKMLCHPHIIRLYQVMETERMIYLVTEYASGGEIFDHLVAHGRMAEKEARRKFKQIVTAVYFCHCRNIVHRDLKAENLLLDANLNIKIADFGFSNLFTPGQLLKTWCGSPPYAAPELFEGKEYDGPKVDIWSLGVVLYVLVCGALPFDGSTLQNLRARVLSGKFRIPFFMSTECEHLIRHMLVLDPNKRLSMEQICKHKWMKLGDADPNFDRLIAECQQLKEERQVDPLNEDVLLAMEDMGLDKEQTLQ
Experiment: Biochemical activities determination for SIK3 protein (TR-FRET)
Conditions: 125 uM ATP, 0.5 μM STK1 substrate
Can you tell me IC50 for the items I'm about to list?
Numbers only, in nM.

                          chemicalstructure  resulttype  unit  readoutvalue
0  CN(C)CCOc1cc(-c2coc3cc(OCCN4CCCC4)ccc23)cc(OC(F)F)c1C(=O)NC1CC1        IC50    nM          6310
1  COc1cc(-c2coc3cc(-c4cnn(C)c4)ccc23)cc2c1C(=O)N(CC(F)(F)F)CC2(C)C        IC50    nM           156

Count: 4. Required value per item: IC50.
1. COc1cc(-c2coc3cc(-c4cnn(C)c4)ccc23)cc2c1C(=O)N(Cc1ccncc1)CC2
2. COc1cc(-c2coc3cc(-c4cnn(C5CCN(C)CC5)c4)ccc23)cc2c1C(=O)N(CC(F)(F)F)CC2
3. Cc1ccc(-c2ccc3c(-c4cc5c(c(OC(F)F)c4)C(=O)N(CC(F)(F)F)CC5)coc3c2)nn1
4. O=C(NC1CC1)c1c(NCCO)cc(-c2coc3cc(OCCN4CCCC4)ccc23)cc1OC(F)F

Result ::
1. 1110
2. 23
3. 329
4. 211

---

Give IC50 for every item shown.
Target: SIK1 kinase (aa1-303, Thermo Fisher) (Homo sapiens, UniProt P57059)
Construct: SIK1 kinase (aa1-303, Thermo Fisher); purchased Thermo Fisher
Sequence (P57059 1-303): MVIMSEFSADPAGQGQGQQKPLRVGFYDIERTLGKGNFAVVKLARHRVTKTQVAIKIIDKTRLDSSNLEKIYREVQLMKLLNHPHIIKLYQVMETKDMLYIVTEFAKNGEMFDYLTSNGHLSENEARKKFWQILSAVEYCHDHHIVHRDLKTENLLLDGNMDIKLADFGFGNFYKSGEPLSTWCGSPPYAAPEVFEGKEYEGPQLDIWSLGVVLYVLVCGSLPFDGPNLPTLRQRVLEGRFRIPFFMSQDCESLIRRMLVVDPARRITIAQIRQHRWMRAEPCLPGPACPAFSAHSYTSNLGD
Experiment: Biochemical activities determination for SIK1 protein (TR-FRET)
Details: 110 uM ATP, 0.5 μM STK1 substrate

>>> df
                                   molecule  resulttype  readoutvalue
0  COc1cc(-c2coc3cc(OCCN4CCCC4)ccc23)cc(OC(F)F)c1C(=O)N[C@H]1CCCC[C@H]1O [Compound 125]        IC50    > 10000 nM
1  O=C(NC1CC1)c1c(OC(F)F)cc(-c2coc3cc(OCCN4CCCC4)ccc23)cc1O[C@H]1CC[C@H](O)CC1 [Compound 101]        IC50    > 10000 nM

Field: next molecule
Query :: Entry COc1cc(-c2coc3cc(OCc4cncn4C)ccc23)cc2c1C(=O)N(CC(F)(F)F)CC2 [Compound 60] : reported IC50 = ?
Result :: > 10000 nM

---

Target: SIK1 kinase (aa1-303, Thermo Fisher) (Homo sapiens)
Construct: SIK1 kinase (aa1-303, Thermo Fisher); purchased Thermo Fisher
Assay: Biochemical activities determination for SIK1 protein (TR-FRET)
Details: 110 uM ATP, 0.5 μM STK1 substrate
Exercise: state measured IC50 for each of the compounds provided.
Numbers only, in nM.

In [3]: df
Out[3]:
                          chemicalstructure  resulttype  unit  readoutvalue
0  COc1cc(-c2coc3cc(-c4cn(C)nc4C)ccc23)cc2c1C(=O)N(CC(F)(F)F)CC2        IC50    nM          6040
1  COc1cc(-c2coc3cc(OCCN4CC[C@H](C(C)C)C4)ccc23)cc(OC(F)F)c1C(=O)N[C@@H]1C[C@@H]1F        IC50    nM          2350
2  COc1cc(-c2coc3cc(OCCCN4CCCC4)ccc23)cc(OC(F)F)c1C(=O)N[C@@H]1C[C@@H]1F        IC50    nM           461

# context switch: different compound, same IC50
Query :: Fill blank: measured IC50 of the compound COc1cc(-c2coc3cc(OCCN4CCC[C@H](C)C4)ccc23)cc(OC(F)F)c1C(=O)N[C@@H]1C[C@@H]1F is ____.
Result :: 4540

---

Biological target: SIK2 kinase (full length, Thermo Fisher) (Homo sapiens, UniProt Q9H0K1)
Construct: SIK2 kinase (full length, Thermo Fisher); purchased Thermo Fisher
Sequence (Q9H0K1 whole entry): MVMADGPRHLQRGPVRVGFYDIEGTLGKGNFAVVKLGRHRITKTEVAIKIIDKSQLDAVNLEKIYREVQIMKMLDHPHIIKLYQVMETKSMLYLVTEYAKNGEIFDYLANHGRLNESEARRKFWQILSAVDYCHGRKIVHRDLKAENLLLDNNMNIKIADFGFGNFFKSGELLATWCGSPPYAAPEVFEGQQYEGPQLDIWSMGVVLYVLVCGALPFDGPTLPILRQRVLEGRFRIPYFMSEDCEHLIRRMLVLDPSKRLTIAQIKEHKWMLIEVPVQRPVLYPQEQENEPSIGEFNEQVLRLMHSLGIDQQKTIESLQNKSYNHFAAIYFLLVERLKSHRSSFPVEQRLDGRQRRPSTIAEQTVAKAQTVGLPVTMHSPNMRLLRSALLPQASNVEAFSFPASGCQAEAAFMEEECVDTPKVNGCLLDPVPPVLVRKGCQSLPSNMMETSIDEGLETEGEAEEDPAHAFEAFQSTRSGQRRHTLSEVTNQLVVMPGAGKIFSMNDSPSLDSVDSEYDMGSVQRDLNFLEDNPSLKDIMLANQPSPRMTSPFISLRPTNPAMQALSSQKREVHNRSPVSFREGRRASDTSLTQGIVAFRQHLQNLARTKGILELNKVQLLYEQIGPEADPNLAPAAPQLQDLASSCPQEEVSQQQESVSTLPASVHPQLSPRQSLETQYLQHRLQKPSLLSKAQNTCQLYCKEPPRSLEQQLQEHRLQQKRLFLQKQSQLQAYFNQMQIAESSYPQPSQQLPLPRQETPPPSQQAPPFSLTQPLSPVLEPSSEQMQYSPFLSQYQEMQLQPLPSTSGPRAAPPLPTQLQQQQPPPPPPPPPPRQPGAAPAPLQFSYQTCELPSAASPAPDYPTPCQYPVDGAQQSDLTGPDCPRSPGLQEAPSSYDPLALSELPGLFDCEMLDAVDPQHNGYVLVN
Assay: Biochemical activities determination for SIK2 protein (TR-FRET)
Conditions: 80 uM ATP, 0.5 μM substrate
resultType: log10(IC50) (log10 of the value in nM)
All values: log10 IC50 [nM].

// solved cases for log10(IC50) follow
>>> df
                                   compound                        experimentalsystem  readoutvalue
0  CCOc1cncc(-c2ccc3c(-c4cc5c(c(OC)c4)C(=O)N(CC(F)(F)F)CC5)coc3c2)c1  SIK2 kinase (full length, Thermo Fisher) (Homo sapiens, UniProt Q9H0K1)          3.87
1  COc1cc(-c2coc3cc(OCCN4CCCC4)ccc23)cc(OC(F)F)c1C(=O)N[C@@H]1C[C@H]1F  SIK2 kinase (full length, Thermo Fisher) (Homo sapiens, UniProt Q9H0K1)          1.93
2  O=C(NC1CC1)c1c(NCCO)cc(-c2coc3cc(OCCN4CCCC4)ccc23)cc1OC(F)F  SIK2 kinase (full length, Thermo Fisher) (Homo sapiens, UniProt Q9H0K1)          1.72
3  CN1CC[C@H]1COc1cc(-c2coc3cc(OCCN4CCCC4)ccc23)cc(OC(F)F)c1C(=O)NC1CC1  SIK2 kinase (full length, Thermo Fisher) (Homo sapiens, UniProt Q9H0K1)          3.47
4  O=C1c2c(cc(-c3coc4cc(-c5cnn(C6CCOC6)c5)ccc34)cc2OC(F)F)CCN1CC(F)(F)F (centres unmarked)  SIK2 kinase (full length, Thermo Fisher) (Homo sapiens, UniProt Q9H0K1)          1.15

For every listed record, write down its log10(IC50).
1. CN1CCC(n2cc(-c3ccc4c(-c5cc6c(c(OC(F)F)c5)C(=O)N(CC#N)CC6)coc4c3)cn2)CC1
2. COc1cc(-c2coc3cc(-c4cnn(C)c4)ccc23)cc2c1C(=O)N(CC#N)CC2
3. COc1cc(-c2coc3cc(OC(C)CN4CCCC4)ccc23)cc(OC(F)F)c1C(=O)N[C@@H]1C[C@@H]1F (some centres unmarked)
4. COc1cc(-c2coc3cc(OCCN4CCC[C@H](C)C4)ccc23)cc(OC(F)F)c1C(=O)N[C@@H]1C[C@@H]1F
5. CC[C@H]1CCN(CCOc2ccc3c(-c4cc(OC)c(C(=O)N[C@@H]5C[C@@H]5F)c(OC(F)F)c4)coc3c2)C1
6. COc1cc(-c2coc3cc(-c4cn(C)nc4C#N)ccc23)cc2c1C(=O)N(CC(F)(F)F)CC2
7. COc1cc(-c2coc3cc(OCCN4CCCC4)ccc23)cc(OC(F)F)c1C(=O)NC1CC1(F)F (centres unmarked)

Result ::
1. 0.59
2. 1.08
3. 1.95
4. 1.23
5. 1.34
6. 2.33
7. 1.49

For each of the compounds below, note its log10(IC50).
1. COc1cc(-c2coc3cc(-c4cnnc(C)c4)ccc23)cc2c1C(=O)N(CC(F)(F)F)CC2
2. COc1cc(-c2coc3cc(OCCN4CC[C@H](C)C4)ccc23)cc(OC(F)F)c1C(=O)N[C@@H]1C[C@@H]1F

Result ::
2.62
1.04
